The origin of these recorded values is paper PMC6451107.

assay-system: MLE dsRBD1+2 H196E (Drosophila, UniProt P24785 1-264, H196E)
Sequence (P24785 1-264 H196E): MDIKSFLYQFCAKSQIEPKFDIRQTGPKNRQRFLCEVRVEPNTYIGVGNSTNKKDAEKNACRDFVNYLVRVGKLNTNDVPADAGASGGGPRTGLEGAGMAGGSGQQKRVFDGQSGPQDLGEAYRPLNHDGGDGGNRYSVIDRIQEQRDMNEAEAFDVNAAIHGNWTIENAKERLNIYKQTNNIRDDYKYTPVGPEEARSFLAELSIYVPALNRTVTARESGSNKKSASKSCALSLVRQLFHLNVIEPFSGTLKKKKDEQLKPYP
experimental-details: fluorescence polarization; FP: 80 nM 3'-FAM RNA stock mixed 1:1 with protein, buffer D (composition not in material), 15 min, 20 C; EMSA: 1200 nM RNA stock mixed 1:1 with protein, buffer
experimental-setup: protein: recombinant; tags: SUMO tag removed by ULP1; label: 3'-FAM; hairpin, 13 nt loop (C135-C147)
pKd: −log10 of the molar value.

>  <binder>
R2H1 55mer (FAM) (structured_RNA) RNA: GCUUUAGAGAUCGUUUCGAAUCACAUUGAUAAUCGUUCGAAACGUUCUCCGAAGC

>  <pKd>
5.14

$$$$
